System: mitochondrial protein synthesis in HepG2 cells
Assay: Mitochondrial protein synthesis assay (COX-I to SDH-A ratio, In Cell ELISA)
Assay type: cell-based
Settings: 4 days, ratio of COX-I to SDH-A levels, read-out: MPS IC50
Protocol: Mitochondrial Protein Synthesis Assay Inhibition of mitochondrial protein synthesis was assessed in HepG2 cells by comparing the levels of two subunits of oxidative phosphorylation enzyme complexes, subunit I of Complex IV (COX-I) and the 70 kDa subunit of Complex II (SDH-A). COX-I is mitochondrial DNA encoded and SDH-A is nuclear DNA encoded. […] Inhibition of mitochondrial protein synthesis was expressed as a ratio of COX-1 to SDH-A levels.
pIC50: −log10 of the molar value.
PARAMETER: pIC50

CN=S1(=O)CCC(F)(c2c(F)cc(C3=NO[C@@H](CNC(C)=O)C3)cc2F)CC1 (some centres unmarked) ... < 4.00

Look up pIC50: CN=S1(=O)CCC(F)(c2c(F)cc(C3=NO[C@@H](Cn4ccnn4)C3)cc2F)CC1 (single isomer, unassigned) < 4.00

###

System: mitochondrial protein synthesis in HepG2 cells
Assay: Mitochondrial protein synthesis assay (COX-I to SDH-A ratio, In Cell ELISA)
Assay type: cell-based
Details: 4 days, ratio of COX-I to SDH-A levels, read-out: MPS IC50
Protocol: Mitochondrial Protein Synthesis Assay Inhibition of mitochondrial protein synthesis was assessed in HepG2 cells by comparing the levels of two subunits of oxidative phosphorylation enzyme complexes, subunit I of Complex IV (COX-I) and the 70 kDa subunit of Complex II (SDH-A). COX-I is mitochondrial DNA encoded and SDH-A is nuclear DNA encoded. […] Inhibition of mitochondrial protein synthesis was expressed as a ratio of COX-1 to SDH-A levels.
PARAMETER: IC50

Some compounds with recorded IC50:
N=S1(=O)CCC(F)(c2c(F)cc(C3=NO[C@@H](Cn4ccnn4)C3)cc2F)CC1 (stereo partly drawn) [Example 39] ... > 100 µM
CN=S1(=O)CCC(F)(c2c(F)cc(C3=NO[C@@H](CNC(=O)OC)C3)cc2F)CC1 (single isomer, unassigned) [Example 9] ... > 100 µM

Look up IC50: N=S1(=O)CCC(F)(c2c(F)cc(C3=NO[C@@H](Cn4ccnn4)C3)cc2F)CC1 (stereo partly drawn) [Example 38] 44 µM
